# Tested on: STAPHYLOCOCCUS AUREUS CMX 553
# protocolDetails: In vitro antibacterial activity, MIC, BHI agar dilution
# Assay type: cell-based
# conditionDescription: S. aureus CMX 553, unit assumed
assayEndpoint: MIC
Write the figure, then the unit, nothing else.

Some entries whose results are on file:
CC[C@H]1OC(=O)[C@H](C)C(=O)[C@H](C)[C@@H](O[C@@H]2O[C@H](C)C[C@H](N(C)C)[C@H]2O)[C@](C)(OC)C[C@@H](C)C2=N[C@H](COCc3ccncc3)CN3C(=O)O[C@@]1(C)[C@H]3[C@H]2C [Example 77] :: 0.39 µg/mL
CC[C@H]1OC(=O)[C@H](C)C(=O)[C@H](C)[C@@H](O[C@@H]2O[C@H](C)C[C@H](N(C)C)[C@H]2O)[C@](C)(OC)C[C@@H](C)C2=NC(COCc3ccc(Cl)cc3)C(COCc3ccc(Cl)cc3)N3C(=O)O[C@@]1(C)[C@H]3[C@H]2C (stereo partly drawn) [Example 147] :: 1.56 µg/mL

Which measured MIC belongs to CC[C@H]1OC(=O)[C@H](C)C(=O)[C@H](C)[C@@H](O[C@@H]2O[C@H](C)C[C@H](N(C)C)[C@H]2O)[C@](C)(OC)C[C@@H](C)C2=NC[C@H](COCc3ccccc3)N3C(=O)O[C@@]1(C)[C@H]3[C@H]2C [Example 41] , tested on STAPHYLOCOCCUS AUREUS CMX 553? 0.05 µg/mL
